Experiment: Competitive inhibition of yeast alpha-glucosidase after 90 mins by Lineweaver-Burke plot analysis
Design: species or system Saccharomyces cerevisiae
value_kind: pKi
The meaning of pKi here: minus log10 of the concentration in molar units.

-- ask Requested field: pKi. Item: C[C@H]1CC[C@@H](O)[C@@H](C(=O)O)N1
-- reply 4.15

###

Assay: Inhibition of yeast alpha-glucosidase after 90 mins by spectrophotometric analysis
Set-up: species or system Saccharomyces cerevisiae
value_kind: IC50 (µM)
// units = µM; emit number, no label

-- ask Requested field: IC50. Item: C[C@H]1CC[C@@H](O)[C@@H](C(=O)O)N1
-- reply 1150

###

Assay: Inhibition of Geobacillus toebii BK1 alpha-galactosidase after 90 mins by spectrophotometric analysis
value_kind: pIC50
The meaning of pIC50 here: minus log10 of the concentration in molar units.

-- ask Requested field: pIC50. Item: C[C@H]1CC[C@@H](O)[C@@H](C(=O)O)N1
-- reply 3.74
